- Target under test: HLA-B*4501 (Homo sapiens, UniProt P01889, A329T/A65T/A93T/A95T/C349S/D138N/D201E/D98Y/E176V/E187L/E204Q/E69K/H137Y/K202T/L119W/N87E/Q56L/Q94N/R155S/R180D/S121R/S35A/S48T/V127L/V306I/V36M/W191S/Y140L/Y33H/Y91S)
- Protocol summary: biochemical
- Format: binding
- Details: B*4501
No end group written: not given here.
Outcome measure: IC50 (nM)
Give bare numbers, in nM.

As a guide, the following entries are already answered.
{"Chain": "EEKPRTLHDL", "Quantitative result": 419}
{"Chain": "SEAIYTFQF", "Quantitative result": 293}
{"Chain": "QEKKRHVDL", "Quantitative result": 12600}
{"Chain": "AETFYVDGA", "Quantitative result": 38}
{"Chain": "TEPAAVGVGAV", "Quantitative result": 8240}
{"Chain": "AEDLWVTVY", "Quantitative result": 1840}
{"Chain": "QEILDLWVY", "Quantitative result": 6260}
{"Chain": "NEILIRCII", "Quantitative result": 3250}

Would you be so kind as to report IC50 for each listed record?
1. GEFPYKAAA
2. SEAPKYAIL

a:
[11, 479]
